# test_system: MCL1/Bim (Homo sapiens (Human), UniProt Q07820)
# Sequence (Q07820 171-327): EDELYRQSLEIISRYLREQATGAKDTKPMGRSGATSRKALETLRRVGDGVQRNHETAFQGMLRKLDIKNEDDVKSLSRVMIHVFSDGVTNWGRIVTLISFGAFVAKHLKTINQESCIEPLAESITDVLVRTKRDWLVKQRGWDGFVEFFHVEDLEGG
# protocol_notes: MCL1/Bim Binding AlphaLISA Assay
# condition_description: recombinant human 6xHis-MCL1 (171-327), biotinylated Bim peptide (51-76)
Each entry below carries its reported log10 of IC50.
Base-10 log of IC50, unit nM.

Worked set:
• COc1nn(C)cc1C(=O)N[S@@]1(=O)=NC(=O)c2ccc3c(c2)N(C[C@@H]2CC[C@H]2[C@@H](OC)C[C@@H]2[C@H](OC[C@@H]2C)[C@H](C)C1)C[C@@]1(CCCc2ccccc21)CO3 = -0.37
• CO[C@H]1/C=C/C[C@H](C)C[S@@](=O)(NC(=O)c2cn(C)nc2C#CC(C)(C)O)=NC(=O)c2ccc3c(c2)N(C[C@@H]2CC[C@H]21)C[C@@]1(CCCc2cc(Cl)ccc21)CO3 = -1.40
• CO[C@H]1/C=C/C[C@H](C)C[S@@](=O)(Nc2cccnn2)=NC(=O)c2ccc3c(c2)N(C[C@@H]2CC[C@H]21)C[C@@]1(CCCc2cc(Cl)ccc21)CO3 = 0.33
• CO[C@H]1/C=C/C[C@H](C)C[S@@](=O)(Nc2ncnc3c2cnn3C)=NC(=O)c2ccc3c(c2)N(C[C@@H]2CC[C@H]21)C[C@@]1(CCCc2cc(Cl)ccc21)CO3 = -0.71
• COc1nn(C)cc1C(=O)N[S@@]1(=O)=NC(=O)c2ccc3c(c2)N(C[C@@H]2CC[C@H]2[C@@H](OC)C[C@H]2CC(=O)O[C@@H]2[C@H](C)C1)C[C@@]1(CCCc2cc(Cl)ccc21)CO3 = -1.17

Task: Fill in the blank: the reported log10 of IC50 of CNc1nc(N[S@@]2(=O)=NC(=O)c3ccc4c(c3)N(C[C@@H]3CC[C@H]3[C@@H](OC)/C=C/C[C@H](C)C2)C[C@@]2(CCCc3cc(Cl)ccc32)CO4)c2cn(C)nc2n1 is ____.
Output: -1.38

Task: And then COc1nn(C)cc1C(=O)N[S@@]1(=O)=NC(=O)c2ccc3c(c2)N(C[C@@H]2CC[C@H]2C/C=C/C[C@H](C)C1)C[C@@]1(CCCc2cc(Cl)ccc21)CO3 (mixture of isomers) , what is it?
Output: -0.34

---

# test_system: MCL1/Bim (Homo sapiens (Human))
# protocol_notes: MCL1/Bim Binding AlphaLISA Assay
# condition_description: recombinant human 6xHis-MCL1 (171-327), biotinylated Bim peptide (51-76)
Each entry below carries its reported IC50.
Give your result in nM as a bare value.

Worked set:
• COCC(=O)O[C@H]1/C=C/[C@H](OC)[C@@H]2CC[C@H]2CN2C[C@@]3(CCCc4cc(Cl)ccc43)COc3ccc(cc32)C(=O)N=[S@](=O)(NC(=O)c2cn(C)nc2OC)C[C@H]1C = 0.047
• CO[C@H]1/C=C/C[C@H](C)C[S@@](=O)(Nc2ncnc3nn(C)cc23)=NC(=O)c2ccc3c(n2)N(C[C@@H]2CC[C@H]21)C[C@@]1(CCCc2cc(Cl)ccc21)CO3 = 0.1
• COc1nn(C)cc1C(=O)N[S@@]1(=O)=NC(=O)c2ccc3c(c2)N(C[C@@H]2CC[C@H]2[C@@H](OCCN2CC(OC)C2)/C=C/C[C@H](C)C1)C[C@@]1(CCCc2cc(Cl)ccc21)CO3 = 0.136
• CO[C@H]1/C=C/CCC[S@@](=O)(NC(=O)c2cnn(C)c2)=NC(=O)c2ccc3c(c2)N(C[C@@H]2CC[C@H]21)C[C@]1(CO3)C[C@@H]2C[C@@H]2c2cc(Cl)ccc21 = 0.1

Consider the additional molecule presented here.
Task: Fill in the blank: the reported IC50 of COc1nn(C)cc1C(=O)N[S@@]1(=O)=NC(=O)c2ccc3c(c2)N(C[C@@H]2CC[C@H]2/C=C/[C@@H]2OCCO[C@@H]2[C@H](C)C1)C[C@@]1(CCCc2cc(Cl)ccc21)CO3 is ____.
Output: 0.189

---

# test_system: MCL1/Bim (Homo sapiens (Human), UniProt Q07820)
# protocol_notes: MCL1/Bim Binding AlphaLISA Assay
# condition_description: recombinant human 6xHis-MCL1 (171-327), biotinylated Bim peptide (51-76)
endpoint: pIC50
Units for pIC50: none; it is -log10 of a concentration expressed in mol/L.

Worked set:
- COc1nn(C)cc1C(=O)N[S@@]1(=O)=NC(=O)c2ccc3c(c2)N(C[C@@H]2CC[C@H]2[C@H](OC)[C@H](O)[C@@H](O)C[C@H](C)C1)C[C@@]1(CCCc2cc(Cl)ccc21)CO3 [Example 126]: 9.89
- COc1nn(C)cc1C(=O)N[S@@]1(=O)=NC(=O)c2ccc3c(c2)N(C[C@@H]2CC[C@H]2[C@](O)(C#CCN(C)C)/C=C/C[C@H](C)C1)C[C@@]1(CCCc2cc(Cl)ccc21)CO3 [Example 109]: 10.55
- COc1nn(C)cc1C(=O)N[S@@]1(=O)=NC(=O)c2ccc3c(c2)N(C[C@@H]2CC[C@H]2[C@@H](OC)/C=C/[C@@](C)(OC)[C@H](C)C1)C[C@@]1(CCCc2cc(Cl)ccc21)CO3 [Example 122]: 10.52
- COc1nn(C)cc1C(=O)N[S@@]1(=O)=NC(=O)c2ccc3c(c2F)N(C[C@@H]2CC[C@H]2[C@@H](OC)/C=C/C[C@H](C)C1)C[C@@]1(CCCc2cc(Cl)ccc21)CO3 [Example 161]: 10.05
- COc1nn(C)cc1C(=O)N[S@@]1(=O)=NC(=O)c2ccc3c(c2)N(C[C@@H]2CC[C@H]2[C@@H](OC)/C=C/[C@H](OC(C)=O)[C@H](C)[C@H]1C)C[C@@]1(CCCc2cc(Cl)ccc21)CO3 [Example 91]: 9.75
- COc1nc(N[S@@]2(=O)=NC(=O)c3ccc4c(c3)N(C[C@@H]3CC[C@H]3[C@@H](OC)/C=C/C[C@H](C)C2)C[C@@]2(CCCc3cc(Cl)ccc32)CO4)c2cn(C)nc2n1 [Example 10]: 10.08
- COc1nn(C)cc1C(=O)N[S@@]1(=O)=NC(=O)c2ccc3c(c2)N(C[C@@H]2CC[C@H]2[C@@H](OC)/C=C/C(O)(CC(=O)N(C)C)[C@H](C)C1)C[C@@]1(CCCc2cc(Cl)ccc21)CO3 (mixture of isomers) [Example 124]: 10.48
- C=CC[C@@H]1C[C@@H]2C[C@H](OC)[C@@H]3CC[C@H]3CN3C[C@@]4(CCCc5cc(Cl)ccc54)CCc4ccc(cc43)C(=O)N=[S@](=O)(NC(=O)c3cn(C)nc3OC)C[C@@H](C)[C@H]2O1 [Example 141]: 9.17

Consider the additional molecule presented here.
Task: Fill in the blank: the reported pIC50 of C[C@H]1C/C=C/[C@H](OC(=O)c2cnn(C)c2)[C@@H]2CC[C@H]2CN2C[C@@]3(CCCc4cc(Cl)ccc43)COc3ccc(cc32)C(=O)N=[S@](=O)(NC(=O)c2cnn(C)c2)C1 [Example 51] is ____.
Output: 9.65

---

Each entry below carries its reported IC50.
# test_system: MCL1/Bim (Homo sapiens (Human))
# protocol_notes: MCL1/Bim Binding AlphaLISA Assay
# condition_description: recombinant human 6xHis-MCL1 (171-327), biotinylated Bim peptide (51-76)
Give your result in nM as a bare value.

Worked set:
- CO[C@H]1/C=C/C[C@H](C)C[S@@](=O)(NC(=O)c2cn(C)nc2N2CCN(C3COC3)CC2)=NC(=O)c2ccc3c(c2)N(C[C@@H]2CC[C@H]21)C[C@@]1(CCCc2cc(Cl)ccc21)CO3: 0.026
- CO[C@H]1/C=C/CCC[S@@](=O)(NC(=O)NC2CC2)=NC(=O)c2ccc3c(c2)N(C[C@@H]2CC[C@H]21)C[C@]1(CO3)SCCc2cc(Cl)ccc21: 0.24
- COc1nn(C)cc1C(=O)N[S@@]1(=O)=NC(=O)c2ccc3c(c2)N(C[C@@H]2CC[C@H]2[C@](O)(CCN2CCOCC2)/C=C/C[C@H](C)C1)C[C@@]1(CCCc2cc(Cl)ccc21)CO3: 0.319
- CCn1cc(C(=O)N[S@@]2(=O)=NC(=O)c3ccc4c(c3)N(C[C@@H]3CC[C@H]3[C@@H](OC)/C=C/C[C@H](C)C2)C[C@]2(CO4)SCCc3cc(Cl)ccc32)cn1: 0.05
- C[C@H]1C/C=C/[C@H](O)[C@@H]2CC[C@H]2CN2C[C@@]3(CCCc4cc(Cl)ccc43)COc3ccc(cc32)C(=O)N=[S@](=O)(Nc2nc(Cl)nc3nn(C)cc23)C1: 0.03

Task: Fill in the blank: the reported IC50 of COc1nn(C)cc1C(=O)N[S@@]1(=O)=NC(=O)c2ccc3c(c2)N(C[C@@H]2CC[C@H]2[C@@H]2/C=C/[C@H](OCCCC(=O)O2)[C@H](C)C1)C[C@@]1(CCCc2cc(Cl)ccc21)CO3 is ____.
Output: 0.393

Task: And then COc1nn(C)cc1C(=O)N[S@@]1(=O)=NC(=O)c2ccc3c(c2)N(C[C@@H]2CC[C@H]2[C@@H](OC)/C=C/[C@](C)(OC)[C@H](C)C1)C[C@@]1(CCCc2cc(Cl)ccc21)CO3 , what is it?
Output: 0.135

Task: And then COc1nn(C)cc1C(=O)N[S@@]1(=O)=NC(=O)c2ccc3c(c2)N(C[C@@H]2CC[C@H]2[C@](O)(CC(=O)N2CC(N4CCOCC4)C2)/C=C/C[C@H](C)C1)C[C@@]1(CCCc2cc(Cl)ccc21)CO3 , what is it?
Output: 0.036

Task: And then COc1nn(C)cc1C(=O)N[S@@]1(=O)=NC(=O)c2ccc3c(c2)N(C[C@@H]2CC[C@H]2[C@H](OC)C#CC[C@H](C)C1)C[C@@]1(CCCc2cc(Cl)ccc21)CO3 , what is it?
Output: 0.11

Task: And then CO[C@H]1/C=C/C[C@H](C)C[S@@](=O)(Nc2cnccn2)=NC(=O)c2ccc3c(c2)N(C[C@@H]2CC[C@H]21)C[C@@]1(CCCc2cc(Cl)ccc21)CO3 , what is it?
Output: 0.221
